Kindly supply the reported TGI values for the records listed here.
# Test system: SR leukemia
# assay remarks: NCI tumour cell line growth inhibition, 48 h

| compound | TGI |
| --- | --- |
| ClC1c2ccccc2C2(c3ccccc3)OOC1(c1ccccc1)O2 (stereo unspecified) | 3.4 µM |
| CCCCCCCCNC(C)C(O)c1ccc(SC(C)C)cc1 (stereo unspecified) | 5.71 µM |
| Clc1ccc2nc(Cl)c3ccccc3c2c1 | > 100 µM |

Parameter requested: TGI. Apply to each item below.
1. CNc1ccc([N+](=O)[O-])c2c(NCCCN(C)C)ccnc12
2. O=S1(=O)OCCCOS(=O)(=O)C1(Br)Br
3. COc1ccc(N2N=NN(C(C)C)/C2=C(/Cl)c2nnnn2-c2ccc(OC)cc2)cc1

Given back:
["> 100 µM", "> 100 µM", "> 31.8 µM"]
